Compiled notes: published Ki values involving the protein given by its sequence.
Sequence of the target: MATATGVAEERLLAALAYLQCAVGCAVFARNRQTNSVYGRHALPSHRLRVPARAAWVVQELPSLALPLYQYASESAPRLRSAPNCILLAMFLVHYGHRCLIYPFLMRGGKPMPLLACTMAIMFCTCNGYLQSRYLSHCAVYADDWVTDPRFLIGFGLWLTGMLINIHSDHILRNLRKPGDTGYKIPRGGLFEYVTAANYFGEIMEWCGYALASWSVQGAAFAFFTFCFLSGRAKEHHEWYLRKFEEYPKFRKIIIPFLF
MEASURED_PARAMETER: Ki (nM)

Completed entries (count: 6):
>>> quantitative_readout("CC(C)N(C(=O)[C@H]1CCC2C3CC[C@H]4C=C([N+](=O)[O-])CC[C@]4(C)C3CC[C@@]21C)C(C)C (some centres not stated)")
4200
>>> quantitative_readout("C[C@]12CCC(=O)C=C1NCC1C2CC[C@@]2(C)C1CC[C@@H]2C(=O)c1c(F)cccc1F (some centres not stated)")
39
>>> quantitative_readout("CCN(CC)C(=O)[C@H]1CCC2C3CNC4=C(Cl)C(=O)CC[C@]4(C)C3CC[C@@]21C (some centres not stated)")
51
>>> quantitative_readout("CC(C)(C)N(O)C(=O)[C@H]1CCC2C3CNC4=CC(=O)CC[C@]4(C)C3CC[C@@]21C (some centres not stated)")
38
>>> quantitative_readout("CCN(CC)C(=O)[C@H]1CCC2C3CN(CC(=O)O)C4=CC(=O)CC[C@]4(C)C3CC[C@@]21C (some centres not stated)")
10000
>>> quantitative_readout("CN1CC2C(CC[C@@]3(C)C2CC[C@@H]3C(=O)NC23CC4CC(CC(C4)C2)C3)[C@@]2(C)CCC(=O)C=C12 (some centres not stated)")
8.5

P = CC1=C2N(C)CC3C(CC[C@@]4(C)C3CC[C@@H]4C(=O)NC(C)(C)C)[C@@]2(C)CCC1=O (some centres not stated)
Q = C[C@]12CCC(=O)C=C1NCC1C2CC[C@@]2(C)C1CC[C@@H]2C(=O)CC1CCCCC1 (some centres not stated)
Query string: When P and Q are compared, which has the higher number for Ki? Could you answer with the label of the item you picked?
Result string: P
(P: 60 nM, Q: 4 nM)

I = O=C(O)c1ccc2c(c1)CCc1ccccc1-2
II = CN1C(=O)CCC2(C)c3ccc(Cl)cc3CCC12 (configuration not stated)
Query string: Identify the item whose Ki is the smaller number: I or II Record your answer as the label of the chosen record.
Result string: II
(II: 20 nM, I: 315 nM)

1 = C[C@]12C=CC(=O)C=C1NCC1C2CC[C@@]2(C)C1CC[C@@H]2C(=O)NC12CC3CC(CC(C3)C1)C2 (some centres not stated)
2 = CCN(CC)C(=O)[C@H]1CC[C@H]2[C@@H]3CC[C@H]4N(C)C(=O)CC[C@]4(C)[C@H]3CC[C@]12C
3 = CCN(CC)C(=O)[C@H]1CCC2C3CNC4=C(C)C(=O)CC[C@]4(C)C3CC[C@@]21C (some centres not stated)
4 = CCN(CC)C(=O)[C@H]1CCC2C3CN(C)C4=CC(=O)C=C[C@]4(C)C3CC[C@@]21C (some centres not stated)
Query string: Rank descending by Ki. Reply format: the labels, ordered as requested.
Result string: 4, 1, 3, 2
(4: 1300 nM, 1: 74 nM, 3: 40 nM, 2: 5 nM)

1 = CCN(CC)C(=O)[C@H]1CCC2C3CNC4=CC(=O)C=C[C@]4(C)C3CC[C@@]21C (some centres not stated)
2 = CCN(CC)C(=O)[C@H]1CCC2C3CNC4=CC(=O)C(C)C[C@]4(C)C3CC[C@@]21C (some centres not stated)
Query string: Identify the item whose Ki is the smaller number: 1 or 2 Kindly give the label for the entry you pick.
Result string: 2
(2: 3500 nM, 1: 5800 nM)
